# Species: Rattus norvegicus
# TEST_NAME: DrugMatrix - Regimen: Daily Repeat
# Type: toxicity, organism-based, Sprague-Dawley
# Parameters: regimen Daily Repeat, gender Male, age 6-8 weeks
# ASSAY_SETUP: in vivo, po, 0 mg/kg, 120 h, tissue Plasma, route oral GAVAGE, dose level Control, time 5 day, vehicle .5 % CMC
QUANTITY_KIND: CARBON DIOXIDE
Answer with the figure and its unit, nothing else.

Could you report CARBON DIOXIDE for every entry in the following list?
1. ClC(Cl)Br
2. CCn1cc(C(=O)O)c(=O)c2cc(F)c(N3CCNCC3)cc21
3. Nc1ccn([C@H]2CC[C@@H](CO)O2)c(=O)n1
4. ClC(Br)Br
5. CCOP(=S)(OCC)Oc1nc(Cl)c(Cl)cc1Cl

Marked response:
1. 32.17 mmol/L
2. 30.33 mmol/L
3. 24.33 mmol/L
4. 32.17 mmol/L
5. 27 mmol/L

Exam item: Name the reported CARBON DIOXIDE value associated with the compound COc1nc(C)nc(Cl)c1N=C1NCCN1
Marked response: 29.17 mmol/L

====

# Species: Rattus norvegicus
# TEST_NAME: DrugMatrix - Regimen: Daily Repeat
# Type: toxicity, organism-based, Sprague-Dawley
# Set-up: regimen Daily Repeat, gender Male, age 6-8 weeks
# ASSAY_SETUP: in vivo, ip, 2 mg/kg, 120 h, tissue Blood, route intraperitoneal, dose level High, time 5 day, vehicle 100 % SALINE
QUANTITY_KIND: ABSOLUTE BASOPHIL (cells/µL)
Numbers only, in cells/µL.

Exam item: Name the reported ABSOLUTE BASOPHIL value associated with the substance LEAD (II) ACETATE
Marked response: 120

====

# Organism: Rattus norvegicus
# TEST_NAME: DrugMatrix - Regimen: Daily Repeat
# Assay type: toxicity, organism-based, Sprague-Dawley
# Design: regimen Daily Repeat, gender Male, age 6-8 weeks
# ASSAY_SETUP: in vivo, po, 0 mg/kg, […], tissue Blood, route oral GAVAGE, dose level Control, time 14 day, vehicle .5 % CMC
Give MEAN CORPUSCULAR VOLUME for every item shown.
Give bare numbers, in fL.

Consider the following illustrative entries.
{"STRUCTURE_SMILES_STRING": "ClC(Br)Br", "MEAN CORPUSCULAR VOLUME, fL": 60.15}
{"STRUCTURE_SMILES_STRING": "ClC(Cl)Br", "MEAN CORPUSCULAR VOLUME, fL": 60.15}
{"STRUCTURE_SMILES_STRING": "COc1ccc(C(=O)Nc2c(Cl)c[n+]([O-])cc2Cl)c2ccc(C(F)(F)F)nc12", "MEAN CORPUSCULAR VOLUME, fL": 62.08}

Please turn your attention to the following entry.
Exam item: Name the reported MEAN CORPUSCULAR VOLUME value associated with the compound CCOP(=S)(OCC)Oc1nc(Cl)c(Cl)cc1Cl
Marked response: 63.57

====

# Organism: Rattus norvegicus
# TEST_NAME: DrugMatrix - Regimen: Daily Repeat
# Type: toxicity, organism-based, Sprague-Dawley
# Parameters: regimen Daily Repeat, gender Male, age 6-8 weeks
# ASSAY_SETUP: in vivo, iv, 0 mg/kg, 72 h, tissue Blood, dose level Control, time 3 day, vehicle 100 % SALINE
Starred links: 1 amine or outer side, 2 acyl side, 3 side chain; linkers in the order of their positions; H or OH if unused. Positions of bridges follow the written chain, without caps; N, C: chain ends. Non-standard residues stand in square brackets, D forms with d. Residues, ends and D or L forms follow the SMILES beside them. Chains are numbered I, II in the order given. Actinocin(9to1) = Cc1c2oc3c(C)ccc(C(=O)[*:1])c3nc-2c(C(=O)[*:2])c(N)c1=O; NMeV = CN[C@H](C(=O)O)C(C)C; Sar = CNCC(=O)O
Give MEAN CORPUSCULAR VOLUME for every item shown.

{"COMPOUND": "CC[C@]1(O)C[C@H]2CN(CCc3c([nH]c4ccccc34)[C@@](C(=O)OC)(c3cc4c(cc3OC)N(C=O)[C@H]3[C@@](O)(C(=O)OC)[C@H](OC(C)=O)[C@]5(CC)C=CCN6CC[C@]43[C@@H]65)C2)C1 [VINCRISTINE]", "ENDPOINT_RESULT": "62.6 fL"}
{"COMPOUND": "COc1cc2c3cc1Oc1cc(ccc1O)C[C@@H]1c4c(cc(OC)c(O)c4Oc4ccc(cc4)C[C@@H]3N(C)CC2)CC[N+]1(C)C.[Cl-]", "ENDPOINT_RESULT": "62.3 fL"}
{"COMPOUND": "Cc1ccc(N(CC2=NCCN2)c2cccc(O)c2)cc1 [PHENTOLAMINE]", "ENDPOINT_RESULT": "65.35 fL"}

Exam item: Name the reported MEAN CORPUSCULAR VOLUME value associated with the compound Cc1c2oc3c(C)ccc(C(=O)N[C@@H]4C(=O)N[C@H](C(C)C)C(=O)N5CCC[C@H]5C(=O)N(C)CC(=O)N(C)[C@@H](C(C)C)C(=O)O[C@@H]4C)c3nc-2c(C(=O)N[C@@H]2C(=O)N[C@H](C(C)C)C(=O)N3CCC[C@H]3C(=O)N(C)CC(=O)N(C)[C@@H](C(C)C)C(=O)O[C@@H]2C)c(N)c1=O [DACTINOMYCIN] (I: T[dV]P[Sar][NMeV] / II: T[dV]P[Sar][NMeV]; ester I:1-I:C, II:1-II:C; linker I:N-II:N via Actinocin(9to1))
Marked response: 63.23 fL
